# GI50 per entry
system: OVCAR-5; test: NCI tumour cell line growth inhibition, 48 h
Active and inactive are the calls of the source. Rule as the data show it: active = GI50 up to about 1.1 µM and inactive = higher.

compound	GI50
O=C1CSC(c2ccccc2O)N1c1ccc(-c2ccc(-n3c(-c4ccccc4)nc4ccccc4c3=O)cc2)cc1 (stereo not given)	43.1 µM (inactive)
NC(=S)N1N=C2c3ccccc3CCC[C@H]2[C@@H]1c1ccccc1	9.57 µM (inactive)
C[N+](C)(C)CC(=O)N/N=C(/Cc1nc2ccc([N+](=O)[O-])cc2nc1O)C(=O)Nc1cc(C(F)(F)F)ccc1Cl	> 100 µM (inactive)
CC(=O)OCCCCN1C(=O)CSc2ccccc21	> 100 µM (inactive)
CON(C(=O)OC(C)(C)C)c1ccccc1	> 100 µM (inactive)
CC12OC3(C)OC(=O)C(c4ccccc4)(O1)C3(C)O2 (stereo not given)	> 100 µM (inactive)
C1=Cc2nc1c(-c1ccccc1)c1ccc([n-]1)c(-c1ccccc1)c1nc(c(-c3ccccc3)c3ccc([n-]3)c2-c2ccccc2)C=C1.[Zn+2]	> 100 µM (inactive)
NS(=O)(=O)c1ccc(C(=O)O)cc1 [CARZENIDE]	> 100 µM (inactive)
Cc1c(C(=O)CC(=O)C(=O)Nc2c(C(C)C)cccc2C(C)C)[n+]([O-])c2ccccc2[n+]1[O-]	21.3 µM (inactive)
Cc1nc2ccc(Br)cc2c(=O)n1-c1ccc(N)cc1	> 100 µM (inactive)

----------
# GI50 per entry
system: OVCAR-4; experiment: NCI tumour cell line growth inhibition, 48 h
Active and inactive are the calls of the source. Cut-off read from the data, not from the text of the source: active = GI50 up to about 1.1 µM and inactive = higher.

molecule	GI50
O=C(O)c1cc(C(=O)O)cc(N2C(=O)c3ccccc3C2=O)c1	> 100 µM (inactive)
Cc1cc2nc(N3C(=O)/C(=C/c4ccc(Cl)cc4)N=C3c3ccccc3)sc2cc1C	20 µM (inactive)
O=C(c1ccccc1)c1ccc(N2C(=O)/C(=C/c3cccc([N+](=O)[O-])c3)N=C2c2ccccc2)c(N2C(=O)/C(=C/c3cccc([N+](=O)[O-])c3)N=C2c2ccccc2)c1	34.6 µM (inactive)
CC1(C)[C@H]2Cc3cc4nc5ccccn5c4cc3[C@@H]1C2	12 µM (inactive)
COc1ccc(/N=N/c2c(-c3ccccc3)nn(C(=O)CC(=O)Nc3ccc(OC)cc3)c2-c2ccccc2)cc1	> 100 µM (inactive)
CN(CCNC(=O)c1c[nH]c2c1ccc1ccccc12)CCNC(=O)c1c[nH]c2c1ccc1ccccc12	3.54 µM (inactive)
COc1cc(OC)c(C2(c3c(OC(C)C)c(=O)c3=O)SCCCS2)cc1OC	> 100 µM (inactive)
Cc1nn(C(=O)c2ccccc2O)c2c1C(c1ccc(O)cc1)SC(=N)N2 (centres undefined)	> 2.12 µM (inactive)
O=c1oc2c(O)c(O)cc3c(=O)oc4c(O)c(O)cc1c4c23 [ELLAGIC ACID]	31.6 µM (inactive)

----------
# GI50 per entry
test system: M14; assay: NCI tumour cell line growth inhibition, 48 h
Activity calls are given as the source filed them. Cut-off read from the data, not from the text of the source: active = GI50 up to about 1.1 µM and inactive = higher.

molecule	GI50
COc1ccc(/C=C2/C(C)=NN(c3cccc(Cl)c3)/C2=N/c2nc3ccccc3s2)cc1	25.1 µM (inactive)
C[N+](C)(C)/N=C\c1ccc(O)c(O)c1	> 100 µM (inactive)
O/N=C1/C(=C/c2ccc(Cl)c(Cl)c2)CCCC1C(NO)c1ccc(Cl)c(Cl)c1 (stereo unspecified)	17.4 µM (inactive)
COc1cc(C2=C(C)[C@@H]3CN(CC=C3c3ccc(Cl)cc3)C2)c(S(=O)(=O)O)cc1OC	> 100 µM (inactive)
CC(=O)Nc1ccc(-c2nc3cc(Cl)ccc3o2)cc1	> 50 µM (inactive)
Cc1ccnc(NS(=O)(=O)c2ccc(NC(=O)c3ccc4nc5ccccc5c(Nc5ccc(S(=O)(=O)Nc6nccc(C)n6)cc5)c4c3)cc2)n1	> 100 µM (inactive)
c1ccc2c(c1)nc1n2CNC1	> 100 µM (inactive)
COc1cc(/C=C2\Cc3ccccc3C2=O)cc(OC)c1OC	> 100 µM (inactive)
CC(C)C1CC=NN1C(=O)OC(C)(C)C (stereo unspecified)	> 100 µM (inactive)
Cc1cc(C#N)c(Nc2ccccc2[N+](=O)[O-])s1	32.8 µM (inactive)
CC(C)(C)[Si](C)(C)OCC1OC(n2cc(I)c(N)nc2=O)C(O[Si](C)(C)C(C)(C)C)C1O[Si](C)(C)C(C)(C)C (stereo unspecified)	5.04 µM (inactive)

----------
system: HOP-62; assay: NCI tumour cell line growth inhibition, 48 h
Calls of active or inactive are those of the source. Rule as the data show it: active = GI50 up to about 1.1 µM and inactive = higher.
Outcomes: yes (1) for active, no (0) for inactive

compound	assayed system	qualitative label
COc1ccc([N+]2=NC(c3ccc([N+](=O)[O-])cc3)=NN(c3ccccc3)C2)cc1.[O-][Cl+3]([O-])([O-])[O-]	HOP-62	no (0)
Cn1c(=O)c2nc(CCCc3ccc([N+](=O)[O-])cc3)[nH]c2n(C)c1=O	HOP-62	no (0)
CC(=O)OCCCCN1C(=O)CSc2ccccc21	HOP-62	no (0)
NC(=O)OCC(COc1ccc(Cl)cc1)OC(=O)c1ccccc1Cl (stereo not given)	HOP-62	no (0)
O=C/C(=C(/Br)I)c1ccccc1	HOP-62	no (0)
COP(=O)(OC)C(NC=O)P(=O)(OC)OC	HOP-62	no (0)
CCOP(=O)(OCC)C(F)(F)Cc1cnc(C)c2c1COC(C)(C)O2	HOP-62	no (0)
CC(=O)Nc1ccc(OC2=CCN(C)CC2)cc1	HOP-62	no (0)
N#CCCC1(CCC#N)S(=O)(=O)OCCOS1(=O)=O	HOP-62	yes (1)
C[N+](C)(C)CC(=O)N/N=C(/Cc1nc2ccc([N+](=O)[O-])cc2nc1O)C(=O)Nc1cc(C(F)(F)F)ccc1Cl	HOP-62	no (0)

----------
test system: KM-20L2; assay: NCI tumour cell line growth inhibition, 48 h
The source made the active and inactive calls. Cut-off read from the data, not from the text of the source: active = GI50 up to about 1.1 µM and inactive = higher.
Outcomes: active, inactive

compound	qualitative label
O=C(Cc1nc2c3c(ccc2nc1O)C(=O)c1ccccc1C3=O)C(=O)Nc1ccccc1[N+](=O)[O-]	inactive
Cc1c(C(=O)CC(=O)C(=O)Nc2c(C(C)C)cccc2C(C)C)[n+]([O-])c2ccccc2[n+]1[O-]	inactive
Cc1cc(NCCCCCCCCNc2cc(C)nc3cc(N(C)C)ccc23)c2ccc(N(C)C)cc2n1	inactive
C[N+](C)(C)CC(CC(=O)[O-])C1CC1 (stereo not given)	inactive
C=C1C(O)C2(O)OCC34C(CC5C(C)=CC(=O)C(O)C5(C)C23)OC(=O)C(OC(=O)C/C=C(\C)CCCCC)C14 (stereo not given)	active

----------
system: OVCAR-3; assay: NCI tumour cell line growth inhibition, 48 h
Active and inactive are the calls of the source. Rule as the data show it: active = GI50 up to about 1.1 µM and inactive = higher.
Outcomes: T for active, F for inactive

compound	qualitative label
O=C1CC(c2cccc(Cl)c2)Nc2ccc(N3CCCC3)cc21 (centres undefined)	T
Cc1ccc(NC(=O)C(=O)CC(=O)C2CCOC2=O)c(C)c1 (centres undefined)	F
CCCC(C)C[C@@H](C)CC(C)/C=C(\C)c1oc(=O)c(C)c(O)c1C.CC[C@@H](C)C[C@@H](C)C[C@@H](C)/C=C(\C)c1oc(=O)c(C)c(O)c1C (some centres undefined)	F
COc1ccc([N+]2=NC(c3ccc([N+](=O)[O-])cc3)=NN(c3ccccc3)C2)cc1.[O-][Cl+3]([O-])([O-])[O-]	F
NC(=O)C(=CNC(=S)c1ccncc1)C(N)=O	F
C[N+]1(C)[C@@H]2CC[C@H]1C[C@@H](OC(=O)C(CO)c1ccccc1)C2 (some centres undefined) [ATROPINE METHYLBROMIDE]	F
Nc1ncnc2c1cnn2COCC(O)CO (centres undefined)	F
Cc1cc(Cl)ccc1NC(=O)/C(=N\NC(C)(C)C)C(C#N)c1nc(-c2ccc([N+](=O)[O-])cc2)cs1 (centres undefined)	F
CC(=O)OCCCCN1C(=O)CSc2ccccc21	F

----------
# GI50 per entry
tested on: T47D; assay: NCI tumour cell line growth inhibition, 48 h
The source made the active and inactive calls. Rule as the data show it: active = GI50 up to about 1.1 µM and inactive = higher.

molecule	GI50
CN(/N=C/c1ccccn1)C1=NCCCCN1	> 100 µM (inactive)
NC(Cc1ccccc1)c1nn[nH]n1 (stereo unspecified)	> 100 µM (inactive)
CCN(CC)CCNC(=O)c1ccc(I)cc1	64.4 µM (inactive)
COc1ccc(/C=C2/C(C)=NN(c3cccc(Cl)c3)/C2=N/c2nc3ccccc3s2)cc1	34 µM (inactive)
O=C(Nc1ccccc1)N1CCNC1=S	60.1 µM (inactive)
CC(C)(C)[Si](C)(C)OCC1OC(n2cc(I)c(N)nc2=O)C(O[Si](C)(C)C(C)(C)C)C1O[Si](C)(C)C(C)(C)C (stereo unspecified)	> 10 µM (inactive)
O=P(NC12CC3CC(CC(C3)C1)C2)(N1CC1)N1CC1	94.8 µM (inactive)
Cn1c(-c2ccccc2)c2cc3nc4ccccc4nc3cc2c1-c1ccccc1	24.5 µM (inactive)
CCOc1ccc(/N=N/C2C(=O)N(C(=O)CC(=O)Nc3ccccc3OC)N=C2C)cc1 (stereo unspecified)	> 65 µM (inactive)
CC(=NNC(=S)Nc1ccc(C)cc1)c1cccc(C(C)=NNC(=S)Nc2ccc(C)cc2)n1	29.6 µM (inactive)
O/N=C1\CC2(N3CCOCC3)CCC1(Cc1ccccc1)CC2	32 µM (inactive)
